Origin of measurements: paper PMC12527922

# TEST_SYSTEM: α7–5HT3 mutant chimeric channels (Homo sapiens, UniProt P36544, L141S)
# Sequence (P36544 23-224 L141S): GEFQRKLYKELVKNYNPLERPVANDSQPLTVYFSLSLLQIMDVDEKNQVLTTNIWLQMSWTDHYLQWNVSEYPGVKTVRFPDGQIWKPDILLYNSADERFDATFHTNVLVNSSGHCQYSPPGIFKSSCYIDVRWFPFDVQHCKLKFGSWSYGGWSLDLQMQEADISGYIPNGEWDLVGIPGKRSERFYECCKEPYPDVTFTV
# Sequence (P23979 242-489, further chain): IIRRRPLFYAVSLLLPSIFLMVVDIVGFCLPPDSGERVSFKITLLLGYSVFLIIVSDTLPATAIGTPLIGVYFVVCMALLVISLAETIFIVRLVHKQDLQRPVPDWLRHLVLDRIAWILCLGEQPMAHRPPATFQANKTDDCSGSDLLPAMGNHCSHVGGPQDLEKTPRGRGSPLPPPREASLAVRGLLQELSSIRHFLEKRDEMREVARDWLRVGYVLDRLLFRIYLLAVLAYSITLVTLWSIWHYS
# ASSAY: cell-based
# Type: cell-based, human α7 nAChR LBD, mouse 5HT3 IPD
# CONDITION_PARAMETERS: read-out: EC50 at α75HT3 L141S; sheet 1d; single determinations
pEC50: −log10 of the molar value.
OBSERVED_PROPERTY: pEC50

So for COC(=O)[C@H]1[C@@H](OC(=O)c2ccccc2)C[C@@H]2CC[C@H]1N2C , the logged pEC50 turned out to be < 4.52

---

# TEST_SYSTEM: α7–5HT3 mutant chimeric channels (Homo sapiens, UniProt P36544, S170T)
# ASSAY: cell-based
OBSERVED_PROPERTY: EC50

Entry COC(=O)[C@H]1[C@@H](OC(=O)c2ccccc2)C[C@@H]2CC[C@H]1N2C ; assay system α7–5HT3 mutant chimeric channels (Homo sapiens, UniProt P36544, S170T); EC50 recorded at > 30 µM

---

# TEST_SYSTEM: coca-5HT3 (Homo sapiens, UniProt P36544, G175K/L141G/Y210F/Y217F)
# Sequence (P23979 242-489): as the sequence (P23979 242-489, further chain) above
# Sequence (P36544 23-224 L141G/G175K/Y210F/Y217F): as the sequence (P36544 23-224 L141S) above, with S119G, G153K, Y188F, Y195F counted along it
# ASSAY: [^3H]ASEM displacement, membranes of HEK293 cells expressing coca-5HT3
# Type: binding, human α7 nAChR LBD, mouse 5HT3 IPD
# CONDITION_PARAMETERS: Two sites - Fit Ki, MEAN of 3 experiments; read-out: KiLo MEAN
OBSERVED_PROPERTY: Ki (µM)
Report as a plain number; the unit µM is understood.

Summary: COC(=O)[C@H]1[C@@H](OC(=O)c2ccccc2)C[C@@H]2CC[C@H]1N2C , coca-5HT3 (Homo sapiens, UniProt P36544, G175K/L141G/Y210F/Y217F), Ki = 10.5

---

Would you kindly list Response for each of these compounds?
# TEST_SYSTEM: coca-5HT3 (α7(L141G,G175K,Y210F,Y217F)–5HT3) (Homo sapiens, UniProt P36544, G175K/L141G/Y210F/Y217F)
# Sequence (P36544 23-224 L141G/G175K/Y210F/Y217F): as the sequence (P36544 23-224 L141S) above, with S119G, G153K, Y188F, Y195F counted along it
# Sequence (P23979 242-489, further chain): as the sequence (P23979 242-489, further chain) above
# ASSAY: Membrane potential assay, coca-5HT3 in HEK293
# CONDITION_PARAMETERS: coca-5HT3; conc 1.37174 uM; ED Fig 3a
Number only, please.

Entry NCCc1c[nH]cn1 , Response reported as 0.016

GET /value?item= Nc1ncnc2c1ncn2[C@@H]1O[C@H](CO)[C@@H](O)[C@H]1O &field=Response returns 0.045

Response recorded for this compound, NCCCC(=O)O , is 0.099

Record CCCCC/C=C\C/C=C\C/C=C\C/C=C\CCCC(=O)NCCO [Anandamide] . Reported Response: 0.085

get_value(item= N[C@H](CO)C(=O)O , readout=Response) returns 0.061

In plain terms, NCC(=O)O has a documented Response of 0.03

Lab book: Response of NCCc1c[nH]c2ccc(O)cc12 noted as 0.295

---

# TEST_SYSTEM: α7–GlyR mutant chimeric channels (Homo sapiens, UniProt P36544, Q79S)
# Sequence (P36544 23-230 Q79S): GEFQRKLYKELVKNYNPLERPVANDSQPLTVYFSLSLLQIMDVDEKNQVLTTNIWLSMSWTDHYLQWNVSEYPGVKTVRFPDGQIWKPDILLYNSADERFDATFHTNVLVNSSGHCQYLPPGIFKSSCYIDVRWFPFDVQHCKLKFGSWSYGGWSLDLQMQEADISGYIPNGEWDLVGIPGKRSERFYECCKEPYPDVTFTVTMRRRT
# Sequence (P23415 248-457 partner): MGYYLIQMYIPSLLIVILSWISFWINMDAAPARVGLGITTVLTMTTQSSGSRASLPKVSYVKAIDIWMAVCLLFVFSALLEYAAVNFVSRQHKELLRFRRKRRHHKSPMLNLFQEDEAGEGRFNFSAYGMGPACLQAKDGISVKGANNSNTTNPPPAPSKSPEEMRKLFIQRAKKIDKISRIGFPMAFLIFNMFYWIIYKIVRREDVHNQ
# ASSAY: Membrane potential assay screen, mutant α7–GlyR chimeric channels
# Assay type: cell-based
# CONDITION_PARAMETERS: EC50 at α7-GlyR Q79S, Avg, sheet 1d
pEC50: −log10 of the molar value.
OBSERVED_PROPERTY: pEC50

Given item COC(=O)[C@H]1[C@@H](OC(=O)c2ccccc2)C[C@@H]2CC[C@H]1N2C [cocaine] , the value recorded as its pEC50 is < 4.52
